method: Cytotoxicity against human A549 cells assessed as cell viability at 10 uM by MTT assay relative to control
Type: cell-based
condition_label: read-out: Activity
experimental_endpoint: viability at 10 µM (%)

compound	experimental_endpoint	recorded_result
COc1ccc(C2CNC(=O)C2)cc1OC1CCCC1 (stereo unspecified) [ROLIPRAM]	viability at 10 µM	101
C#CCSc1nsc(NC(=O)Nc2ccc(Cl)c(C(F)(F)F)c2)n1	viability at 10 µM	74.1
CN1CCCC1=O [METHYLPYRROLIDONE]	viability at 10 µM	99.4
CCCOc1cc([C@]2(C)CNC(=O)O2)ccc1OC [DAXALIPRAM]	viability at 10 µM	95.3
C#CCSc1nsc(NC(=O)Nc2ccccc2Cl)n1	viability at 10 µM	89.9
CCCn1c(=O)[nH]c2nc(-c3ccc(S(=O)(=O)N4CCN(c5ccc(Cl)cc5)CC4)cc3)[nH]c2c1=O	viability at 10 µM	86.5
